Data origin: patent US20260374766A1

Listing of entries alongside the reported pIC50.
System: H1299 p53 R273H
Test: Cell Proliferation Assay (CellTiter-Glo, CTG), H1299 p53 R273H (NClH1299-inducible p53 R273H)
Format: cell-based
Settings: Homo sapiens, NCI-H1299, 120 h, CellTiter-Glo, H1299 p53 R273H, 5 days
pIC50: −log10 of the molar value. Structures can show the parent of a compound that is named as a salt.

[
  {
    "compound": "COc1cc(S(C)(=O)=O)ccc1NCC#Cc1nc2c(NC3CCN(C)CC3)cc(-c3ccccc3)cn2c1CC(F)(F)F [Example 34, formic acid salt]",
    "target_or_system": "H1299 p53 R273H",
    "pIC50": "> 5.30"
  }
]

Req: Return pIC50 measured with H1299 p53 R273H given this compound: `CNC(=O)c1ccc(OC)c(NCC#Cc2nc3c(N[C@@H]4CN(C)C[C@@H]4F)cccn3c2SC(F)(F)F)c1`
Resp: ≤ 5.00

Req: State its pIC50 on H1299 p53 R273H: `CC#Cc1nc2c(NC3CCN(C)CC3)cccn2c1CC(F)(F)F`
Resp: ≤ 5.00

Req: Item: `CNC(=O)c1ccc(F)c(NCC#Cc2nc3c(N[C@@H]4CCN(C)C[C@@H]4F)cccn3c2SC(F)(F)F)c1` Test system: H1299 p53 R273H Read-out: pIC50 Value: ?
Resp: ≤ 5.00
